assayTarget: T1, PSMA Fab (SEQ ID NOs: 19, 20)
T1 construct: also called Anti-PSMA Fab; 006 PSMA Fab
assay: clonal phage ELISA, biotinylated PSMA Fab on neutravidin plate, anti-M13 HRP detection;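 also: crude clonal phage supernatants added to wells pretreated with blocking buffer either with or without PSMA antigen, bound phage read after washing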
outcomeMeasure: Phage binding ELISA signal, Anti-PSMA Fab
Number only, no unit.

Recorded results for 3 binders are shown here.
| binder | readoutValue |
| --- | --- |
| IARTCVPAWMCSGF (Tested as crude clonal phage supernatant) [Phage-3538] | 1.65 |
| DVRMCVPEWMCSGF (Tested as crude clonal phage supernatant) [Phage-3539] | 1.65 |
| VKPMCVPEWMCSGL (Tested as crude clonal phage supernatant) [Phage-3540] | 1.65 |

Consider the binder FEVACIPQWMCDGF (Tested as crude clonal phage supernatant) [Phage-3537] and give its measured Phage binding ELISA signal, Anti-PSMA Fab.
1.66

And the next one, LNAMCVPAWMCTGF (Tested as crude clonal phage supernatant) [Phage-3535] ?
1.66
